Experiment: Cytotoxicity against human keratinocytes after 48 hrs by MTT assay
Type: cell-based, Keratinocyte
Attribute Measured: CC50 at 48 h (µM)
I only need the number, in µM, no unit after it.

Inquiry: So what does the record say about CC50 at 48 h for `O=CN1CCc2cc3c(c4c2[C@H]1Cc1ccccc1-4)OCO3` ?
Reply text: 355

* * *

Experiment: Cytotoxicity against human fibroblasts after 48 hrs by MTT assay
Type: cell-based, Fibroblast
Attribute Measured: CC50 at 48 h (µM)
I only need the number, in µM, no unit after it.

Inquiry: So what does the record say about CC50 at 48 h for `O=CN1CCc2cc3c(c4c2[C@H]1Cc1ccccc1-4)OCO3` ?
Reply text: 325

* * *

Assay System: Tyrosinase (Homo sapiens, UniProt P14679)
Sequence (P14679 whole entry): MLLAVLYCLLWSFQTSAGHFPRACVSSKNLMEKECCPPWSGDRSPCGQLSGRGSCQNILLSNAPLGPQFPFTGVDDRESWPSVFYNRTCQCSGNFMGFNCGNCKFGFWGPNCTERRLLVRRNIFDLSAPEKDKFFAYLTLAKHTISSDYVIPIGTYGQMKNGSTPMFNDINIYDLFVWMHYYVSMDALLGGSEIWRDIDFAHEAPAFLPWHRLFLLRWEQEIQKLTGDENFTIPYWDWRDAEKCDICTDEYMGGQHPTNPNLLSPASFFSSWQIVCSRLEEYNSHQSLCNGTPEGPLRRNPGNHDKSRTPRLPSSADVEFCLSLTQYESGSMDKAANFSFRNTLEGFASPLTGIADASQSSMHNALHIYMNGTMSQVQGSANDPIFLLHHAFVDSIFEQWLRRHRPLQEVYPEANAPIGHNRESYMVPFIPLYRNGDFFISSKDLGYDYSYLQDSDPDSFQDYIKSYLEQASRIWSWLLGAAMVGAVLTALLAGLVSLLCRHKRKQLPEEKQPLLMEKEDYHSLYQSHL
Experiment: Inhibition of tyrosinase in human HEMn-MP assessed as reduction of melanin level after 2 days by spectrophotometric analysis
Attribute Measured: EC50 (µM)
I only need the number, in µM, no unit after it.

Inquiry: So what does the record say about EC50 for `O=CN1CCc2cc3c(c4c2[C@H]1Cc1ccccc1-4)OCO3` ?
Reply text: 90
